Target: human DLL3 protein expressed on CHO-K1 recombinant cells (human DLL3 extracellular segment fused to EpCAM transmembrane and intracellular regions) (human) (UniProt Q9NYJ7)
Sequence (Q9NYJ7 other isoform, or with tags, fused parts or gaps limits assumed): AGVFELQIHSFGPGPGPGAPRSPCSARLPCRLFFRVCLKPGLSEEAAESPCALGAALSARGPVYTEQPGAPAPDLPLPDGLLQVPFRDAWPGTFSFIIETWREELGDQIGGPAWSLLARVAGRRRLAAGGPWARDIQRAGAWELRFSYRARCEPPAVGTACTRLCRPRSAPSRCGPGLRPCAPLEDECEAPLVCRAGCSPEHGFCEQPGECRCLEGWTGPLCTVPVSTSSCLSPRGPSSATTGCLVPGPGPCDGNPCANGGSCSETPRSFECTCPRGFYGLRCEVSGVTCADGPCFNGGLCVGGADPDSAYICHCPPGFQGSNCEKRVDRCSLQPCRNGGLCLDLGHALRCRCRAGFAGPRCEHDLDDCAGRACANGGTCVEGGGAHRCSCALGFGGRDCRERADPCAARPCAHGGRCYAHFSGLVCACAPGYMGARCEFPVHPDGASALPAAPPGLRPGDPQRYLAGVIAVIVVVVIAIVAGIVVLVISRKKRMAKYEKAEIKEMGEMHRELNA
Assay: FACS, CHO-K1 hDLL3 cells, 0.8 nM antibody
Each entry below carries its recorded MFI.
Response body: numeric value in MFI, unit text excluded.

Previously resolved entries follow.
Exam item: Give its MFI value. Item: Hab008L1H2a-hFc (scFv, part only; not given: VL-VH linker and human IgG1 Fc, V domains shown, not shown: another chain or arm of the molecule; a dimerising Fc or GST; small tags and cut ends) VL: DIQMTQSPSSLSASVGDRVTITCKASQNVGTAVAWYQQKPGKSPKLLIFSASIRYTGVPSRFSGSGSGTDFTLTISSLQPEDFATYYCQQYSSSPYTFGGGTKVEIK VH: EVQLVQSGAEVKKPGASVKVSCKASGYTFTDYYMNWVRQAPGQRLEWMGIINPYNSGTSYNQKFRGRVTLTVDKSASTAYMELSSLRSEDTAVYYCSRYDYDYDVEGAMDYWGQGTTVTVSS
Marked response: 3700

Exam item: Give its MFI value. Item: Hab008L1H5-hFc (scFv, part only; not given: VL-VH linker and human IgG1 Fc, V domains shown, not shown: another chain or arm of the molecule; a dimerising Fc or GST; small tags and cut ends) VL: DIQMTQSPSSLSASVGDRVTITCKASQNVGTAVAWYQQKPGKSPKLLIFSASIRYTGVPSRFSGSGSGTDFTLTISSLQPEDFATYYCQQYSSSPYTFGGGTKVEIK VH: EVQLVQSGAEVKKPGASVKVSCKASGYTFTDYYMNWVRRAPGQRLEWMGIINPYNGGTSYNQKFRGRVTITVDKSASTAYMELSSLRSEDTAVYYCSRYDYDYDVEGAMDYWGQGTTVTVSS
Marked response: 2170

Exam item: Give its MFI value. Item: Hab015VL4VH1a-hFc (scFv, part only; not given: scFv linker and human IgG1 Fc, V domains shown, not shown: another chain or arm of the molecule; a dimerising Fc or GST; small tags and cut ends) VL: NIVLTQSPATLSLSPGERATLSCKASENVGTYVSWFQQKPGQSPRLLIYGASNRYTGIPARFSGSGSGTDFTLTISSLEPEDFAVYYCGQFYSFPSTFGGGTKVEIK VH: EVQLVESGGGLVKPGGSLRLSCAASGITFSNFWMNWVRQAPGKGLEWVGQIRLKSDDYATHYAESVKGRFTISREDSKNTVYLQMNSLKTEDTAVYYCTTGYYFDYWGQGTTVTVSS
Marked response: 5070

Exam item: Give its MFI value. Item: Hab015VL4VH5a-hFc (scFv, part only; not given: VL-VH linker and human IgG1 Fc, V domains shown, not shown: another chain or arm of the molecule; a dimerising Fc or GST; small tags and cut ends) VL: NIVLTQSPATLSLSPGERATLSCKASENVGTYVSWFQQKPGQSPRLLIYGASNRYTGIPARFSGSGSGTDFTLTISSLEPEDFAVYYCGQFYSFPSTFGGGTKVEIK VH: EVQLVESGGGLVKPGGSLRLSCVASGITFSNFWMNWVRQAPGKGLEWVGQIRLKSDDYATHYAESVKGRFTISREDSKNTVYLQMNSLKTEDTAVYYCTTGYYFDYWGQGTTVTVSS
Marked response: 4390

Turning now to a further record.
Exam item: Give its MFI value. Item: Hab015VL5VH6a-hFc (scFv, part only; not given: scFv linker and human IgG1 Fc, V domains shown, not shown: another chain or arm of the molecule; a dimerising Fc or GST; small tags and cut ends) VL: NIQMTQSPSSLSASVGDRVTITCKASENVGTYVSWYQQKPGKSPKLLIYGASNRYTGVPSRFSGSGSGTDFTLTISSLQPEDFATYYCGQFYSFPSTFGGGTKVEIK VH: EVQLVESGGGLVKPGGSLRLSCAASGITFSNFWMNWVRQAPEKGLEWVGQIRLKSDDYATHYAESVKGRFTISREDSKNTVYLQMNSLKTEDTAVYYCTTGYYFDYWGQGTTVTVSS
Marked response: 3960
